Target: LPAR1 (Homo sapiens, UniProt Q92633)
Construct: host or cells: U2OS
Sequence (Q92633 whole entry): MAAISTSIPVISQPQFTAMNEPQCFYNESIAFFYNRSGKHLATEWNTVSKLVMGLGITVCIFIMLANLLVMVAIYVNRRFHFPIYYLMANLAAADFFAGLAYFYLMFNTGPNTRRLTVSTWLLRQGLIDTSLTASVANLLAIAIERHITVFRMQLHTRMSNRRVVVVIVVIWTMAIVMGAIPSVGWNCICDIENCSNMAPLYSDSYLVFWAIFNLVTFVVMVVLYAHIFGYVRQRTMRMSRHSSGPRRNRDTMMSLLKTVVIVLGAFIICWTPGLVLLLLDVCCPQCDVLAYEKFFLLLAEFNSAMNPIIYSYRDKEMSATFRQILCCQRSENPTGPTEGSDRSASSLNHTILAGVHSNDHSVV
Assay: LPAR1 FLIPR Assay
Assay type: cell-based
Settings: U2OS cells stably expressing LPAR1; LPA (EC80); Calcium 6 FLIPR dye
Here the recorded IC50 is given for each entry.
Only the number, expressed in nM, is required.

1) COc1cc(C(=O)N(CCCc2ccccc2)CCOCC2(C(=O)O)CC2)cc(OC)c1C [Example 59]
23
2) COc1ccc(C2(C(=O)N(CCCCC(=O)O)CCCc3ccccc3)COC2)cc1 [Example 89]
36
3) COc1cc(C(=O)N(CCCOC(=O)NS(C)(=O)=O)CCCc2ccccc2)cc(OC)c1C [Example 186]
65
4) COc1cc(C(=O)N(CCCCC(=O)O)CCCc2ccccc2)cc(OC)c1F [Example 99]
67
5) COc1cc(C(=O)N(CCCCC(=O)O)CCCc2ccc(F)cc2)cc(OC)c1C [Example 34]
24

Request: Return IC50 for the following compound: COc1cc(C(=O)N(CCCc2ccc(F)cc2)CCOCC(=O)O)cc(OC)c1C [Example 139]
Response: 46

Request: Look up IC50 of COc1cc(C(=O)N(CCCCC(=O)NS(=O)(=O)c2cccnc2)CCCc2ccccc2)cc(OC)c1C [Example 142] and report it.
Response: 76

Values were extracted from patent US20190119200A1.
